# Experiment description: Cysteine-activated sulfur dioxide release, ion chromatography analysis of sulfite
# Experimental parameters: sum of sulfite and sulfate; compound 100 μM, cysteine 10 equiv, pH 7.4
Value kind: Max SO2 yield (µM)

- Molecule: "O=[N+]([O-])c1ccc(S(=O)(=O)Nc2cccc(F)c2)c([N+](=O)[O-])c1 [Compound 9]"
  Observed value: 86
- Molecule: "CN(Cc1ccccc1)S(=O)(=O)c1ccc([N+](=O)[O-])cc1[N+](=O)[O-] [Compound 15]"
  Observed value: 100
- Molecule: "CCCN(Cc1ccccc1)S(=O)(=O)c1ccc([N+](=O)[O-])cc1[N+](=O)[O-] [Compound 16]"
  Observed value: 96
- Molecule: "O=[N+]([O-])c1ccc(S(=O)(=O)NCc2ccccc2)c([N+](=O)[O-])c1 [Compound 1, N-benzyl-2,4-dinitrophenylsulfonamide]"
  Observed value: 100
- Molecule: "O=[N+]([O-])c1ccc(S(=O)(=O)Nc2ccccc2)c([N+](=O)[O-])c1 [Compound 6, N-phenyl, 2,4-dinitrophenylsulfonamide]"
  Observed value: 94
- Molecule: "COc1ccc(NS(=O)(=O)c2ccc([N+](=O)[O-])cc2[N+](=O)[O-])cc1 [Compound 7]"
  Observed value: 97
